// data source = patent US6469003B1

# System: neutrophils isolated from human peripheral blood
# experiment_description: Test of neutrophil adhesion inhibitory activity (fMLP-induced adhesion to keyhole limpet hemocyanin-coated plate)
# Assay type: cell-based
# recorded_conditions: fluorescence-labeled, fMLP final concentration of 50 nM, plate coated with keyhole limpet hemocyanin, 37° C., read-out: Test of neutrophil adhesion inhibitory (50% inhibition concentration) IC50
pIC50: −log10 of the molar value.
Values of pIC50 greater than or equal to 7 map to true (1); values below map to false (0).

Worked examples, 3 molecules total:
molecule: CC(=O)c1nn(-c2ccc[n+]([O-])c2)c(=O)c(Sc2ccc(F)cc2)c1C
assigned_label: false (0)
--
molecule: CSc1c(C)c(C(C)=O)nn(-c2cccc(Cl)c2)c1=O
assigned_label: true (1)
--
molecule: CC(=O)c1nn(-c2cccnc2)c(=O)c(-c2cccs2)c1C
assigned_label: false (0)

[ask] Test whether the molecule "CC(=O)c1nn(-c2cccnc2)c(=O)c(Sc2ccc(F)cc2)c1C" records pIC50 of 7 or higher.
[reply] true (1)

[ask] Test whether the molecule "CC(=O)c1nn(-c2cccnc2)c(=O)c(Sc2ccccc2)c1C" records pIC50 of 7 or higher.
[reply] true (1)

[ask] Test whether the molecule Cc1c(C(C)O)nn(-c2ccc(F)cc2)c(=O)c1Sc1ccncc1 (centres unmarked) records pIC50 of 7 or higher.
[reply] false (0)

[ask] Test whether the molecule "CC(=O)c1nn(-c2cccc(Cl)c2)c(=O)c(Oc2ccc(F)cc2)c1C" records pIC50 of 7 or higher.
[reply] true (1)

----------
# Tested on: neutrophils isolated from human peripheral blood
# experiment_description: Test of neutrophil adhesion inhibitory activity (fMLP-induced adhesion to keyhole limpet hemocyanin-coated plate)
# Format: cell-based
# recorded_conditions: fluorescence-labeled, fMLP final concentration of 50 nM, plate coated with keyhole limpet hemocyanin, 37° C., read-out: Test of neutrophil adhesion inhibitory (50% inhibition concentration) IC50
Label scheme, based on IC50: band 1: < 0.02 µM; band 2: ≥ 0.02 µM and < 0.1 µM; band 3: ≥ 0.1 µM

Worked examples, 3 molecules total:
molecule: CC(=O)c1nn(-c2ccc(F)cc2)c(=O)c(Sc2ccccn2)c1C
assigned_label: band 3
//
molecule: COc1cccc(Sc2c(C)c(C(C)=O)nn(-c3cccc(Cl)c3)c2=O)c1
assigned_label: band 2
//
molecule: CC(=O)c1nn(-c2cccc(Cl)c2)c(=O)c(Sc2ccc(C)cc2)c1C
assigned_label: band 3

[ask] Category lookup for the molecule "CC(=O)c1nn(-c2cccnc2)c(=O)c(Sc2ccncc2)c1C"
[reply] band 3

[ask] Category lookup for the molecule "O=C(O)c1cc(CSc2ccc(F)cc2)c(=O)n(-c2cccc(Cl)c2)n1"
[reply] band 3

[ask] Category lookup for the molecule CC(=O)c1nn(-c2cccc(Cl)c2)c(=O)c([S+]([O-])c2ccccc2)c1C (stereo not drawn)
[reply] band 1

[ask] Category lookup for the molecule "CC(=O)c1nn(-c2ccc(F)cc2)c(=O)c(OCc2ccccn2)c1C"
[reply] band 3

[ask] Category lookup for the molecule CC(=O)c1nn(-c2ccc(F)cc2)c(=O)c(Sc2ccncc2)c1C [Compound 1-25]
[reply] band 1

[ask] Category lookup for the molecule "CC(=O)c1nn(-c2cccc(Cl)c2)c(=O)c(Sc2ccc(Cl)cc2)c1C"
[reply] band 2

[ask] Category lookup for the molecule CC(=O)c1nn(-c2ccc(F)cc2)c(=O)c(Sc2cccnc2)c1C [Compound 1-22]
[reply] band 1

[ask] Category lookup for the molecule "COc1ccc(Sc2c(C)c(C(C)=O)nn(-c3cccc(Cl)c3)c2=O)cc1"
[reply] band 2

[ask] Category lookup for the molecule "CC(=O)c1nn(-c2ccc(F)cc2)c(=O)c(OCc2cc[n+]([O-])cc2)c1C"
[reply] band 3

[ask] Category lookup for the molecule "CC(=O)c1nn(-c2cccc(Cl)c2)c(=O)c(Sc2ccccc2Cl)c1C"
[reply] band 1

[ask] Category lookup for the molecule "CC(=O)c1nn(-c2ccc(F)cc2)c(=O)c(OCc2ccncc2)c1C"
[reply] band 2

[ask] Category lookup for the molecule "CC(=O)c1nn(-c2cccc(F)c2)c(=O)c(-c2cccs2)c1C"
[reply] band 3

[ask] Category lookup for the molecule CC(=O)c1nn(-c2ccc(F)cc2)c(=O)c(Sc2cccnc2)c1C [Compound 1-23]
[reply] band 1

[ask] Category lookup for the molecule "CC(=O)c1nn(-c2cccc(Cl)c2)c(=O)c(SC(C)(C)C)c1C"
[reply] band 1

----------
Catalogue of melting point readings, one per entry.

Recorded melting point, per entry:
compound: CC(=O)c1nn(-c2ccc(F)cc2)c(=O)c(Sc2ccc(N(C)C)cc2)c1C
melting point: 172 to 174 °C
--
compound: Cc1c(C(C)O)nn(-c2cccc(Cl)c2)c(=O)c1Sc1ccccc1 (centres unmarked)
melting point: 180 to 182 °C
--
compound: CC(=O)c1nn(-c2cccc(Cl)c2)c(=O)c(-c2cccs2)c1C
melting point: 116 to 117 °C
--
compound: CC(=O)c1nn(-c2cccc(Cl)c2)c(=O)c(C(N)=S)c1C
melting point: 195 to 197 °C
--
compound: CC(=O)c1nn(-c2ccc(F)cc2)c(=O)c(SCCN2CCOCC2)c1C
melting point: 92 to 93 °C
--
compound: CC(=O)c1nn(-c2cccc(Cl)c2)c(=O)c(-c2nccs2)c1C
melting point: 158 to 160 °C
--
compound: CC(=O)c1nn(-c2ccc(F)cc2)c(=O)c(OCc2cccnc2)c1C.Cl
melting point: 153 to 156 °C
--
compound: CC(=O)c1nn(-c2ccc(F)cc2)c(=O)c(Sc2ccc(NS(C)(=O)=O)cc2)c1C
melting point: 182 to 184 °C
--
compound: CC(=O)c1nn(-c2ccc(Cl)cc2)c(=O)c(Sc2ccc(Cl)cc2)c1C
melting point: 165 to 166 °C
--
compound: CC(=O)c1nn(-c2cccc(Cl)c2)c(=O)c(Sc2ccccc2)c1C
melting point: 99 to 100 °C

Now, please, on to the next compound.
melting point reading for "CC(=O)c1nn(-c2cccc(Cl)c2)c(=O)c(S(=O)(=O)c2ccccc2)c1C" : 175 to 176 °C

----------
Catalogue of pIC50 readings, one per entry.
# Test system: neutrophils isolated from human peripheral blood
# experiment_description: Test of neutrophil adhesion inhibitory activity (fMLP-induced adhesion to keyhole limpet hemocyanin-coated plate)
# Assay type: cell-based
# recorded_conditions: fluorescence-labeled, fMLP final concentration of 50 nM, plate coated with keyhole limpet hemocyanin, 37° C., read-out: Test of neutrophil adhesion inhibitory (50% inhibition concentration) IC50
pIC50 is defined as minus the log10 of a concentration measured in mol/L.

molecule: CC(=O)c1nn(-c2cccc(Cl)c2)c(=O)c(Sc2ccccn2)c1C
pIC50: 7.10

pIC50 reading for CC(=O)c1nn(-c2ccc(F)cc2)c(=O)c(Sc2ccncc2)c1C [Compound 1-24] : 7.85

pIC50 reading for "CC(=O)Nc1ccc(Sc2c(C)c(C(C)=O)nn(-c3ccc[n+]([O-])c3)c2=O)cc1" : 6.01

pIC50 reading for "CC(=O)c1nn(-c2ccc(F)cc2)c(=O)c(-c2cccs2)c1C" : 6.39

----------
# Tested on: neutrophils isolated from human peripheral blood
# experiment_description: Test of neutrophil adhesion inhibitory activity (fMLP-induced adhesion to keyhole limpet hemocyanin-coated plate)
# Format: cell-based
# recorded_conditions: fluorescence-labeled, fMLP final concentration of 50 nM, plate coated with keyhole limpet hemocyanin, 37° C., read-out: Test of neutrophil adhesion inhibitory (50% inhibition concentration) IC50
Catalogue of IC50 readings, one per entry.
Quick note: give the figure in nM, leave out the unit.

Recorded IC50, per entry:
compound: CC(=O)c1nn(-c2ccc(F)cc2)c(=O)c(Sc2ccc(F)cc2)c1C
system: neutrophils isolated from human peripheral blood
IC50 [nM]: 5
//
compound: CC(=O)c1nn(-c2ccc(Cl)cc2)c(=O)c(Sc2ccccc2)c1C
system: neutrophils isolated from human peripheral blood
IC50 [nM]: 222
//
compound: COc1ccccc1Sc1c(C)c(C(C)=O)nn(-c2cccc(Cl)c2)c1=O
system: neutrophils isolated from human peripheral blood
IC50 [nM]: 619

IC50 reading for "CC(=O)c1nn(-c2cccc(Cl)c2)c(=O)c(Oc2ccccc2)c1C" : 18

IC50 reading for "CC(=O)c1nn(-c2cccc(F)c2)c(=O)c(Oc2ccc(F)cc2)c1C" : 48

----------
Catalogue of IC50 readings, one per entry.
# Tested on: neutrophils isolated from human peripheral blood
# experiment_description: Test of neutrophil adhesion inhibitory activity (fMLP-induced adhesion to keyhole limpet hemocyanin-coated plate)
# Format: cell-based
# recorded_conditions: Neutrophil, fluorescence-labeled, fMLP final concentration of 50 nM, plate coated with keyhole limpet hemocyanin, 37° C., read-out: Test of neutrophil adhesion inhibitory (50% inhibition concentration) IC50
Quick note: give the figure in µM, leave out the unit.

Recorded IC50, per entry:
molecule: CC(=O)c1nn(-c2cccc(Cl)c2)c(=O)c(S(=O)(=O)c2ccccc2)c1C [Compound 1-83]
system: neutrophils isolated from human peripheral blood
quantitative_readout: 0.012
--
molecule: Cc1c(C(C)O)nn(-c2cccc(Cl)c2)c(=O)c1Sc1ccccc1 (stereo not shown) [Compound 6-01]
system: neutrophils isolated from human peripheral blood
quantitative_readout: 0.009
--
molecule: CC(=O)c1nn(-c2cccc(Cl)c2)c(=O)c(-c2cccs2)c1C [Compound 1-97]
system: neutrophils isolated from human peripheral blood
quantitative_readout: 0.011

Now, please, on to the next molecule.
IC50 reading for CC(=O)c1nn(-c2cccc(Cl)c2)c(=O)c(Sc2ccccc2)c1C [Compound 1-64] : 0.004
